- Measured on: T1, recombinant human EGFR extracellular domain with 6xHis (human, UniProt P00533 25-645)
- T1 construct: In-house produced; also called 6xHis EGFR ECD; soluble human EGFR ECD; not shown: 6xHis tag
- Test protocol: SPR competition, competitor 1347
Value type: % inhibition (%)
Note: unit % is implicit; provide only the numeric part.

Exercise: What value of % inhibition has been reported for the following binder? antibody 1260 (antibody, human IgG1, kappa, V domains shown, Chimeric IgG1 kappa) VH: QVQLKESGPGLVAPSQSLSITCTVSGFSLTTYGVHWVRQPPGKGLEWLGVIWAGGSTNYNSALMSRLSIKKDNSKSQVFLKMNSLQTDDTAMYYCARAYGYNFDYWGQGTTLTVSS VL: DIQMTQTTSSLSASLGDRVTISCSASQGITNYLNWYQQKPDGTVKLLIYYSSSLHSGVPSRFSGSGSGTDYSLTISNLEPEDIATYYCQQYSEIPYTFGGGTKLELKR
Solution: 46

Exercise: What value of % inhibition has been reported for the following binder? antibody 1254 (antibody, human IgG1, kappa, V domains shown, Chimeric IgG1 kappa; also called mAb 1254) VH: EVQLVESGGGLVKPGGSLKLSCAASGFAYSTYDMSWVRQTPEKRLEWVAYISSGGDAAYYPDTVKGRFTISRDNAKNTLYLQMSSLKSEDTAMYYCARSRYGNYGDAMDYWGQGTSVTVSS VL: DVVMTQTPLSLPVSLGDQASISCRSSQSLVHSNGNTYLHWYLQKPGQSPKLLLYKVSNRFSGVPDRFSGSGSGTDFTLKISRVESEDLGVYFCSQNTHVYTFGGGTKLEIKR
Solution: 3

Exercise: What value of % inhibition has been reported for the following binder? antibody 1261 (antibody, human IgG1, kappa, V domains shown, Chimeric IgG1 kappa) VH: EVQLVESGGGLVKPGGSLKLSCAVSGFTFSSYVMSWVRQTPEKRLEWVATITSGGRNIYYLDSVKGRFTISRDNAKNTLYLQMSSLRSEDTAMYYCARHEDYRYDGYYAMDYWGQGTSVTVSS VL: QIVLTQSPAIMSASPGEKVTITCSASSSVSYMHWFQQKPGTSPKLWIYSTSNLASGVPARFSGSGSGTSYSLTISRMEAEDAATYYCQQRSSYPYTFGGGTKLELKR
Solution: 4
